// data source = patent US20200277374A1

Molecular target: T1, human Siglec-7 expressed on human cells (primary monocytes, dendritic cells, macrophages, NK cells, … (human, UniProt Q9Y286 19-467))
T1 construct: Endogenous receptor on cells; also called Siglec-7 receptor
T1 sequence (Q9Y286 19-467): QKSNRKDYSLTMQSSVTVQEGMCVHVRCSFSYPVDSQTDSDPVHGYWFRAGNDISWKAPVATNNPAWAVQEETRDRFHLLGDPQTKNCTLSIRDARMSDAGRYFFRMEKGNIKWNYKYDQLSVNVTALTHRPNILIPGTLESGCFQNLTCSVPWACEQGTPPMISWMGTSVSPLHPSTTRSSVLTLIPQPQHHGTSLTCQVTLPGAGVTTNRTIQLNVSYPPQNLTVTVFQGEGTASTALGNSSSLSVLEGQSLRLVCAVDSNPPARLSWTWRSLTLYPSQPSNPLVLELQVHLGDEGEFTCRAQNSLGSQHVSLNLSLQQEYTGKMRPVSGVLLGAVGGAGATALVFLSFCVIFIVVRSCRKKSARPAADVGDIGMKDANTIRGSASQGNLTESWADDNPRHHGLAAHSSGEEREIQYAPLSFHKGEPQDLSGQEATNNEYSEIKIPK
Experiment: FACS, human primary monocytes, 10 ug/ml mAb
Param label: returns Satisfied when MFI < 400, returns Not satisfied otherwise, including exact equality.

Exercise: In the record for anti-Siglec-7 antibody 10B5 (antibody, V domains shown, that light chain holds several Z and differs in its CDRs from S7-10B5.1 / 10B5L1; also called S7-10B5; mAb S7-10B5) VH: QVHLQQSGPELVKPGASVKISCKASGYAFTNCWMNWVRQRPGKGLDWIGRIFPGNGHTNYSGKFKDKATLTEDKSSSTAYMQLSSLTSEDSAVYFCARDYSDYYFDYWGQGTTLTVSS VL: DVQMTQTTSSLSASLGDRVTISCRASQDINTYLNWYQQKPDGTVKLLIYYTSRLHSGVPSRFSGSGSGTDYSLTISNLEQEDIATYFCQQGNTLPWTFGGGTKLEIK , is MFI less than 400?
Key: Not satisfied

Exercise: In the record for anti-Siglec-7 antibody 4A1 (antibody, V domains shown, Variable domains assembled from FR and CDR entries) VH: QVQLQQSGSELRSPGSSVKLSCKDFDSEVFPITYMNWVRQKPGHGFEWIGDILPSIGRTMYGEKFEDKATLDADTVSNTAYLELNSLTSEDSAIYYCARSEGYLLAYWGQGTLVTVSA VL: DVVMTQTPLSLPVSLGDQASISCRSSQSLVHSTGNIYLHWYLQKPGQSPKLLIYKVSNRFZGVPDRFSGSGSGTDFTLKISRVEAEDLGVYFCSQNTHVPYTFGGGTKLEIK , is MFI less than 400?
Key: Not satisfied

Exercise: In the record for anti-Siglec-7 antibody 7E11 (antibody, V domains shown, Variable domains assembled from FR and CDR entries) VH: QVQLKQSGPVLVAPSQSLSITCTVSGFSLSNYGVHWVRQFPGKGLEWLGVIWAGGITNYNSVLMSRLSISKDNSKSQVFLKMNSLQTDDTAMYYCAKQGGTSFSYWGQGTLVTVSA VL: DIQMTQSPASQSASLGESVTITCLASQTIGTWLAWYQQKPGKSPQLLIYAATSLADGVPSRFSGSGSGTKFSFKISSLQAEDFVSYYCQQLYSTPYTFGGGTKLEIK , is MFI less than 400?
Key: Satisfied

Exercise: In the record for anti-Siglec-7 antibody 2G1 (antibody, V domains shown, Variable domains assembled from FR and CDR entries; the printed VL FR1 looks shortened at its N-terminus; also called 2G11 (misprint in text)) VH: EVKLVESGGTLVKPGGSLKISCAASGFTFSNYDMSWVRQNPEKRLEWVATISSGGDYTYYPDIFKGRFTISRDDAKNALYLQMSSLRSEDTALYYCARHGYGNYDWYFDVWGAGATVTVSS VL: VLTQSPAIMSASPGEKVTMTCSANSSFIYMYWYQQKPGSSPRLLIFDTSNLASGVPIRFSGSGSGTSYSLTISRMEAEDTATYYCQQWSSSPLTFGGGTKLELK , is MFI less than 400?
Key: Not satisfied

Exercise: In the record for anti-Siglec-7 antibody 1E8 (antibody, V domains shown) VH: QVQLQQSGAELVRPGASVKLSCSASGFNIKGSLLHWIKQRPLQGLEWIGWIDPEDGETRFDPKFQDKAFLTADTSSTTAYLQLSSLTSEDTAIYYCARTEYSNPAWFAYWGQGTLVTVSA VL: DIQMTQFPATLSVTPGDRVSLSCRASQSISDYLHWYQHKSHESPRLLIKYASQSISGIPSRFSGSGSGWDFTLSINSVEPEDVGIYYCQKGLNFPLTFGGGTKLEMK , is MFI less than 400?
Key: Not satisfied
